System: HNSC
Assay: growth inhibition (% activity, log2 RLU normalised to DMSO / staurosporine); higher = more growth inhibition
Conditions: 33 µM
Each entry below carries its recorded growth inhibition.
I only need the number, in %, no unit after it.

Examples with answers:
compound: O=C(c1ccc(OCCN2CCCCC2)cc1)c1c(-c2ccc(O)cc2)sc2cc(O)ccc12
system_name: HNSC
result_units: %
growth inhibition: 1.59
--
compound: CCOc1ccc2nc3cc(N)ccc3c(N)c2c1
system_name: HNSC
result_units: %
growth inhibition: 2.09
--
compound: O=C(CCCN1CCN(c2ccccn2)CC1)c1ccc(F)cc1
system_name: HNSC
result_units: %
growth inhibition: 1.17

Please give the measured growth inhibition for this compound: CCC[C@@H]1C[C@@H](C(=O)N[C@@H]([C@H]2O[C@H](SC)[C@H](OP(=O)(O)O)[C@@H](O)[C@H]2O)[C@H](C)Cl)N(C)C1
3.42

Which growth inhibition value belongs to Nc1c2c(nc3ccccc13)CCCC2 ?
-4.73

Need growth inhibition, item CCCCCCCCCCCCCCCC[N+](C)(C)CCN(Cc1ccc(OC)cc1)c1ncccn1
57.8
